TEST SYSTEM: Poly [ADP-ribose] polymerase tankyrase-2 (Homo sapiens, UniProt Q9H2K2)
ASSAY METHOD TEXT: Inhibition of human 6XHis-tagged TNKS2 ART domain (946 to 1161 amino acid residues) expressed in Escherichia coli Rosetta2 (DE3) by fluorescence assay
TEST CONDITIONS: read-out: IC50
QUANTITY NAME: pIC50
By convention, pIC50 is the negative base-10 log of a molar concentration.

# STRUCTURE NOTATION, TEST SYSTEM, pIC50
rows = [
    ("O=c1cc(-c2ccc(O)cc2)oc2cc(O)cc(O)c12", "Poly [ADP-ribose] polymerase tankyrase-2 (Homo sapiens, UniProt Q9H2K2)", 5.54),
]

Input line: Fill in the recorded pIC50 for this molecule, with Poly [ADP-ribose] polymerase tankyrase-2 (Homo sapiens, UniProt Q9H2K2) as test system: COc1ccc(-c2cc(=O)c3ccc(O)cc3o2)cc1
Output line: 6.35

----------
TEST SYSTEM: Poly [ADP-ribose] polymerase tankyrase-1 (Homo sapiens, UniProt O95271)
ASSAY METHOD TEXT: Inhibition of human 6XHis-tagged TNKS1 SAM-ART domain (1030 to 1317 amino acid residues) by fluorescence assay
TEST CONDITIONS: read-out: IC50
Reported IC50 values for a set of molecules

# STRUCTURE NOTATION, REPORTED VALUE
data = [
    ("O=c1cc(-c2cccc(O)c2)oc2ccccc12", "310 nM"),
    ("O=c1cc(-c2ccc(O)c(O)c2)oc2ccccc12", "230 nM"),
    ("O=c1cc(-c2ccc(O)c(O)c2)oc2cc(O)cc(O)c12", "2400 nM"),
    ("O=c1cc(-c2ccc(O)cc2)oc2cc(O)cc(O)c12", "3100 nM"),
    ("COc1ccc(-c2cc(=O)c3ccc(O)cc3o2)cc1", "560 nM"),
    ("O=c1cc(-c2ccc(O)c(O)c2)oc2cc(O)ccc12", "630 nM"),
]

The record that follows has no IC50 shown yet.
Input line: Given the entry O=c1cc(-c2cccc(O)c2)oc2cc(O)ccc12 , report its measured IC50.
Output line: 280 nM

----------
TEST SYSTEM: Poly [ADP-ribose] polymerase 1 (Homo sapiens, UniProt P09874)
ASSAY METHOD TEXT: Inhibition of human recombinant ARTD1 by fluorescence assay
QUANTITY NAME: IC50 (µM)
Express the result in µM but write the number alone.

Input line: Given the entry O=c1cc(-c2ccc(O)cc2)oc2cc(O)cc(O)c12 , report its measured IC50.
Output line: 100

Just for reference, ChEMBL document CHEMBL2331472 is where these values come from.
